Numbers sourced from ChEMBL document CHEMBL4616594.

# target-system: 72 kDa type IV collagenase (Homo sapiens, UniProt P08253)
# Sequence (P08253 whole entry, the tested form may be a part): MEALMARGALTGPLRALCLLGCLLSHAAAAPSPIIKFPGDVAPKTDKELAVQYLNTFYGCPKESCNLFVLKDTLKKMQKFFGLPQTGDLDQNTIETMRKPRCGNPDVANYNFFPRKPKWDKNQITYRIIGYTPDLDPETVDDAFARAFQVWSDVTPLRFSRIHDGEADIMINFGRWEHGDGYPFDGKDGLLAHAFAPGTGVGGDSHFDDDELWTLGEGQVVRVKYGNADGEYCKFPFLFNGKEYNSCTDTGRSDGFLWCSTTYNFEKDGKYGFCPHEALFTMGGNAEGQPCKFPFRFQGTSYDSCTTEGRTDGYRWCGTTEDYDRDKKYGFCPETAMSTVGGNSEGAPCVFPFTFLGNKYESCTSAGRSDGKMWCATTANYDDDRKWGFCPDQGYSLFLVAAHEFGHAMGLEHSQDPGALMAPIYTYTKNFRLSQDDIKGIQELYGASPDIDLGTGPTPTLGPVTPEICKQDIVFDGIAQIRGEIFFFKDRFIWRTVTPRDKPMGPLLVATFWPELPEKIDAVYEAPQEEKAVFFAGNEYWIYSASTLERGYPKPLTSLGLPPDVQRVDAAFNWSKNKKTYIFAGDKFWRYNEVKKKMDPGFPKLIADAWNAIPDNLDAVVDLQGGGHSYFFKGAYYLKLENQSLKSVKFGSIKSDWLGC
# assay-info: Inhibition of recombinant human MMP2 catalytic domain (Tyr110 to Asp452 residues) expressed in yeast cells using Mca-Pro-Leu-Gly-Leu-Dpa-Ala-Arg-NH2/TQ3-GABA-Pro-Cha-Abu-Smc-His-Ala-Dab(6'-TAMRA)-Ala-Lys-NH2 as fluorogenic substrate preincubated for 15 mins followed by substrate addition measured after 2 to 4 hrs by fluorometric analysis
quantity: IC50 (µM)
Answers are plain numbers, in µM.

Example cases with answers are listed next.
O=C(CCCc1ccccc1)Nc1ccc(-c2nc3ccccc3[nH]2)cc1 | 96
Cc1ccc2nc(-c3ccc([N+](=O)[O-])cc3)[nH]c2c1 | 6.5
Cc1ccc2nc(-c3ccc(NC(=O)c4cccc([N+](=O)[O-])c4)cc3)[nH]c2c1 | 3.9
O=C(Nc1ccc(-c2nc3ccccc3[nH]2)cc1)c1ccccc1 | 6.5
Cc1cccc2nc(-c3cccc(NC(=O)CCc4ccccc4)c3)[nH]c12 | 64

# map each compound to its IC50
1. O=[N+]([O-])c1ccc(-c2nc3ccccc3[nH]2)cc1
2. O=C(Nc1cccc(-c2nc3ccccc3[nH]2)c1)c1ccccc1
3. Cc1ccc2oc(-c3ccc([N+](=O)[O-])cc3)nc2c1
4. COC(=O)c1ccc(-c2nc3ccc(Br)cc3[nH]2)cc1
5. Cc1ccc2oc(-c3ccc(NC(=O)c4ccc([N+](=O)[O-])cc4)cc3)nc2c1
6. O=C(CCCc1ccccc1)Nc1ccc(-c2nc3ccc(Br)cc3[nH]2)cc1
7. Cc1ccc2nc(-c3cccc(NC(=O)CN(C)Cc4ccccn4)c3)[nH]c2c1

1. 82
2. 11.9
3. 9.7
4. 9
5. 15.9
6. 31
7. 72

----------
# target-system: Neutrophil collagenase (Homo sapiens)
# assay-info: Inhibition of recombinant human MMP8 catalytic domain (Phe99 to Gln269 residues) expressed in Escherichia coli cells using Mca-Pro-Leu-Gly-Leu-Dpa-Ala-Arg-NH2/TQ3-GABA-Pro-Cha-Abu-Smc-His-Ala-Dab(6'-TAMRA)-Ala-Lys-NH2 as fluorogenic substrate preincubated for 15 mins followed by substrate addition measured after 2 to 4 hrs by fluorometric assay
Can you tell me pIC50 for the items I'm about to list?
Answers are plain numbers, as −log10 of the molar value.

# map each molecule to its pIC50
1. Cc1ccc2nc(-c3ccc(NC(=O)c4ccc([N+](=O)[O-])cc4)cc3)[nH]c2c1
2. O=[N+]([O-])c1ccc(-c2nc3ccccc3[nH]2)cc1
3. Cc1ccc2nc(-c3ccc(NC(=O)c4ccccc4)cc3)[nH]c2c1
4. O=[N+]([O-])c1ccc(-c2nc3ccccc3[nH]2)o1
5. Nc1ccc(-c2nc3ccccc3s2)cc1

1: 4.59; 2: 4.19; 3: 4.34; 4: 4.57; 5: 4.06

----------
# target-system: Neutrophil collagenase (Homo sapiens, UniProt P22894)
# Sequence (P22894 whole entry, the tested form may be a part): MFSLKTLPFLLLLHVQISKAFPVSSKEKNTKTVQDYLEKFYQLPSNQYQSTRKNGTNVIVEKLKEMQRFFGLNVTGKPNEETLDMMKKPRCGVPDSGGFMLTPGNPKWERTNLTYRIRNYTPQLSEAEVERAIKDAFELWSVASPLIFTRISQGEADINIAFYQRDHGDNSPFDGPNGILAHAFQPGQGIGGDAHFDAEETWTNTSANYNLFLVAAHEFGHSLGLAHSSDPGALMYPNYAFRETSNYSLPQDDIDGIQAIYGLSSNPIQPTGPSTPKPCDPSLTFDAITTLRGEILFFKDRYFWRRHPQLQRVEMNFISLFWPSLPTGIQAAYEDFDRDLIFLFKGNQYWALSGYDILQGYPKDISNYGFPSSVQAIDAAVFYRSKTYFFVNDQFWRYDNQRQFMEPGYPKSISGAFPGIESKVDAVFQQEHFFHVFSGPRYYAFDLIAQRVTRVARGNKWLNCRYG
# assay-info: Inhibition of recombinant human MMP8 catalytic domain (Phe99 to Gln269 residues) expressed in Escherichia coli cells using Mca-Pro-Leu-Gly-Leu-Dpa-Ala-Arg-NH2/TQ3-GABA-Pro-Cha-Abu-Smc-His-Ala-Dab(6'-TAMRA)-Ala-Lys-NH2 as fluorogenic substrate preincubated for 15 mins followed by substrate addition measured after 2 to 4 hrs by fluorometric assay
Can you tell me pIC50 for the items I'm about to list?
Numbers only, as −log10 of the molar value.

# map each compound to its pIC50
1. O=C(Nc1ccc(-c2nc3ccccc3[nH]2)cc1)c1ccc(Br)cc1
2. Cc1ccc2nc(-c3ccc(NC(=O)CCc4ccccc4)cc3)[nH]c2c1
3. Nc1ccc(-c2nc3ccc(Br)cc3[nH]2)cc1
4. Cc1ccc2nc(-c3cccc(C(=O)NCCc4ccccc4)c3)[nH]c2c1
5. O=[N+]([O-])c1ccc(-c2nc3ccccc3o2)cc1
6. O=[N+]([O-])c1ccc(-c2nc3ccc(Br)cc3[nH]2)cc1

1: 4.26; 2: 4.11; 3: 4.59; 4: 4.40; 5: 4.34; 6: 5.00

# map each compound to its pIC50
1. O=[N+]([O-])c1ccc(-c2nc3cc([N+](=O)[O-])ccc3[nH]2)cc1
2. O=C(CCc1ccccc1)Nc1cccc(-c2nc3ccccc3[nH]2)c1
3. Cc1cccc2nc(-c3cccc(NC(=O)CCc4ccccc4)c3)[nH]c12
4. O=C(Nc1cccc(-c2nc3ccccc3[nH]2)c1)c1ccccc1

4.60
4.38
4.54
4.34

----------
# target-system: Collagenase 3 (Homo sapiens, UniProt P45452)
# assay-info: Inhibition of recombinant human MMP13 catalytic domain (Tyr104 to Asn274 residues) expressed in Escherichia coli cells using Mca-Pro-Leu-Gly-Leu-Dpa-Ala-Arg-NH2/TQ3-GABA-Pro-Cha-Abu-Smc-His-Ala-Dab(6'-TAMRA)-Ala-Lys-NH2 as fluorogenic substrate preincubated for 15 mins followed by substrate addition measured after 2 to 4 hrs by fluorometric assay
quantity: pIC50
Give bare numbers, as −log10 of the molar value.

Example cases with answers are listed next.
O=C(Nc1nc2ccc(Cl)cc2s1)c1ccc([N+](=O)[O-])cc1 | 4.70
O=C(Nc1cccc(-c2nc3ccccc3[nH]2)c1)c1ccccc1 | 4.46
Cc1ccc2nc(-c3cccc([N+](=O)[O-])c3)[nH]c2c1 | 4.81

# context switch: different molecule, same pIC50
Bench note: what pIC50 did O=C(Nc1ccc(-c2nc3ccc(Br)cc3[nH]2)cc1)c1ccccc1 show?
5.41

----------
Can you tell me IC50 for the items I'm about to list?
# target-system: Matrix metalloproteinase-9 (Homo sapiens)
# Sequence (P14780 whole entry, the tested form may be a part): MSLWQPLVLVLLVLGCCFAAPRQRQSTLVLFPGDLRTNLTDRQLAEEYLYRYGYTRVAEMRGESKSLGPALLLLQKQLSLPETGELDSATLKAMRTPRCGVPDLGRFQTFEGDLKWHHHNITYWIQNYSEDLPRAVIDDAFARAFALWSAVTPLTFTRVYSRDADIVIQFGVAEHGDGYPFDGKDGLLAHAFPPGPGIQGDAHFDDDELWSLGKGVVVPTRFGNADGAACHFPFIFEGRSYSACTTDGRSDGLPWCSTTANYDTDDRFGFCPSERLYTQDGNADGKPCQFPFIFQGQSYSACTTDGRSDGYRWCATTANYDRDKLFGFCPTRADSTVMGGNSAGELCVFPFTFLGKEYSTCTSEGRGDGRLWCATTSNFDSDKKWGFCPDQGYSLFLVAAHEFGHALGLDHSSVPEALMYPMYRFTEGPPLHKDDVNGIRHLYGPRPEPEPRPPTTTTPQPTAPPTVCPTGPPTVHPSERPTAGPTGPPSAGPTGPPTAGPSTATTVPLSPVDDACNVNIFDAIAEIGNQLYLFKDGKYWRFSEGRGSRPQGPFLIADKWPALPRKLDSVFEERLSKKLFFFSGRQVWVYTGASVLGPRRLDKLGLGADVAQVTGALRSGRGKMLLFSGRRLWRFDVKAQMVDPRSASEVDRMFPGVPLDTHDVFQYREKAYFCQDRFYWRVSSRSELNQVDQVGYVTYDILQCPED
# assay-info: Inhibition of recombinant human MMP9 catalytic domain (Phe107 to Pro449 residues) expressed in Escherichia coli cells using Mca-Pro-Leu-Gly-Leu-Dpa-Ala-Arg-NH2/TQ3-GABA-Pro-Cha-Abu-Smc-His-Ala-Dab(6'-TAMRA)-Ala-Lys-NH2 as fluorogenic substrate preincubated for 15 mins followed by substrate addition measured after 2 to 4 hrs by fluorometric assay

Example cases with answers are listed next.
O=C(CCCc1ccccc1)Nc1ccc(-c2nc3ccccc3[nH]2)cc1 | > 100 µM
Brc1ccc2nc(-c3ccccc3)[nH]c2c1 | > 100 µM

# context switch: different molecule, same IC50
Bench note: what IC50 did COc1ccc(/C=C/C(=O)Nc2cccc(-c3nc4ccccc4[nH]3)c2)cc1 show?
> 100 µM

----------
Can you tell me IC50 for the items I'm about to list?
# target-system: 72 kDa type IV collagenase (Homo sapiens, UniProt P08253)
# assay-info: Inhibition of recombinant human MMP2 catalytic domain (Tyr110 to Asp452 residues) expressed in yeast cells using Mca-Pro-Leu-Gly-Leu-Dpa-Ala-Arg-NH2/TQ3-GABA-Pro-Cha-Abu-Smc-His-Ala-Dab(6'-TAMRA)-Ala-Lys-NH2 as fluorogenic substrate preincubated for 15 mins followed by substrate addition measured after 2 to 4 hrs by fluorometric analysis

Example cases with answers are listed next.
O=C(Nc1nc2ccc(Cl)cc2s1)c1ccc([N+](=O)[O-])cc1 | > 100 µM
Brc1ccc2nc(-c3ccccc3)[nH]c2c1 | > 100 µM

# context switch: different compound, same IC50
So what IC50 did Nc1ccc(-c2nc3ccccc3s2)cc1 get with 72 kDa type IV collagenase (Homo sapiens, UniProt P08253)?
> 100 µM

----------
Can you tell me pIC50 for the items I'm about to list?
# target-system: Collagenase 3 (Homo sapiens, UniProt P45452)
# assay-info: Inhibition of recombinant human MMP13 catalytic domain (Tyr104 to Asn274 residues) expressed in Escherichia coli cells using Mca-Pro-Leu-Gly-Leu-Dpa-Ala-Arg-NH2/TQ3-GABA-Pro-Cha-Abu-Smc-His-Ala-Dab(6'-TAMRA)-Ala-Lys-NH2 as fluorogenic substrate preincubated for 15 mins followed by substrate addition measured after 2 to 4 hrs by fluorometric assay
One number for each entry, as −log10 of the molar value.

Example cases with answers are listed next.
O=C(Nc1ccc(-c2nc3ccccc3[nH]2)cc1)c1ccccc1 | 5.12
Cc1ccc2oc(-c3ccc(NC(=O)c4ccc([N+](=O)[O-])cc4)cc3)nc2c1 | 4.96
O=[N+]([O-])c1ccc(-c2nc3ccccc3o2)cc1 | 5.14
O=C(Nc1ccc(-c2nc3ccccc3[nH]2)cc1)c1ccc(Br)cc1 | 4.96

# context switch: different compound, same pIC50
Bench note: what pIC50 did O=[N+]([O-])c1ccc(-c2nc3ccc(Br)cc3[nH]2)cc1 show?
4.98

----------
# target-system: 72 kDa type IV collagenase (Homo sapiens)
# assay-info: Inhibition of recombinant human MMP2 catalytic domain (Tyr110 to Asp452 residues) expressed in yeast cells using Mca-Pro-Leu-Gly-Leu-Dpa-Ala-Arg-NH2/TQ3-GABA-Pro-Cha-Abu-Smc-His-Ala-Dab(6'-TAMRA)-Ala-Lys-NH2 as fluorogenic substrate preincubated for 15 mins followed by substrate addition measured after 2 to 4 hrs by fluorometric analysis
pIC50: −log10 of the molar value.
Would you mind labelling by pIC50? At or over 5 is yes (1), under is no (0).

Worked examples, 6 molecules total:
O=[N+]([O-])c1ccc(-c2nc3ccccc3o2)cc1 | yes (1)
Cc1ccc2nc(-c3cccc(C(=O)NCCc4ccccc4)c3)[nH]c2c1 | no (0)
O=[N+]([O-])c1ccc(-c2nc3ccccc3s2)cc1 | yes (1)
O=C(CCc1ccccc1)Nc1ccc(-c2nc3ccccc3[nH]2)cc1 | no (0)
O=S(=O)(Nc1cccc(-c2nc3ccccc3[nH]2)c1)c1ccccc1 | no (0)
O=C(Nc1ccc(-c2nc3ccccc3s2)cc1)c1ccccc1 | no (0)

Please turn your attention to the following entry.
Assess whether reported pIC50 for O=[N+]([O-])c1ccc(-c2nc3ccccc3[nH]2)o1 sits at 5 or higher.
no (0)
